# Test system: MS2 coat protein
# test protocol: apparent KD of MS2 coat protein; designed switch direction (-1 OFF switch, 1 ON switch): 1; higher = weaker reporter binding
# experimental conditions: input ligand: FMN 200 uM
Binned apparent KD of MS2 coat protein; ranges: class 0: < 0.03 µM; class 1: ≥ 0.03 µM and < 0.06 µM; class 2: ≥ 0.06 µM

Just checking, what class would you give AUUUUUAAUGCAGGAUAUGAUUAACAUGAGGAUCACCCAUGUGGUGUUGUGAGUAAGGAGAGUGAUCAGAAGGGCAUAUUUUUU [JMF's solution 80] (Eterna round: R96, puzzle: Same State NG 2) here? class 2

Which category fits this record: AGGGAGGAUGCAGGAUAUAUAAGACAUGAGGAUCACCCAUGUACCUCGUGGAGAAGAAAGGAGAGAUAGAAGGGUAGUGAGGAA [Default title] (Eterna round: R96, puzzle: Same State NG 2) class 2

Categorize the following entry: UACAUACGCGGAGGAUAUGGGCGAGGCACGGAGGUCCGCGCCAAAACAUGAGGAUCACCCAUGUCCCAGAAGGCCGCACAAACU [Oreslaed] (Eterna round: R96, puzzle: Same State NG 2) class 0

Where would GGAUGAUUGACAGGAUAUCAUUUGUAAAUUGGUUGAGAAGGGUCGAUUACUUACACGACCUGUUACAUGAGGAUCACCCAUGUU [SameState NG1 #3] (Eterna round: R96, puzzle: Same State NG 1) land among the classes by reported apparent KD of MS2 coat protein? class 1

Hello team, could you let me know which band the following sequence falls into: AUAGUUUCCGAAGGAUAUGAUGAGGAUCACCCAUCAGAAGGUUGGCUAUUGGGCUGACAUGAGGAUCACCCAUGUUUCGGUGUU (Eterna round: R96, puzzle: Same State NG 1) class 1

Please report the category associated with GGAUGAUAGACAGGAUAUUGAUUGUAAUUAGGUCAAGAAGGGUCAAUGAUUUAAACGACCAGUUACAUGAGGAUCACCCAUGUU [JR_SSNG1_Sub027] (Eterna round: R96, puzzle: Same State NG 1) , nothing else. class 2

Dear colleague, I would appreciate it if you could identify the bin for UUUGCAUGACGAGGAUAUCAUUUAUUUCAUGUUUGAGAAGGCGUUUUUUUUAUUACCUUACAUGAGGAUCACCCAUGUGUCUGU [JR_SSNG1_Sub044] (Eterna round: R96, puzzle: Same State NG 1) and reply at your convenience. class 1

Which of the defined bands does the recorded apparent KD of MS2 coat protein of UCUUGGUUUUUGCUCGUUUUUUGUGUUGAACAUGAGGAUCACCCAUGUAUUGUACGGUCCAGUUUGAUAAUGGUCCG [JMF 34] (Eterna round: R96, puzzle: Sensor for hsa-mir-208a) sit within? class 1

Class label required: GAGCCAGUCCGAGGAUAUUCAUAUUAACACAUGAGGAUCACCCAUGUAGGCUCAGAAGAGCCUUGGGAGAAGGCGGACUGGCUC [SS-NG2-LRO14] (Eterna round: R96, puzzle: Same State NG 2) class 1

Band assignment needed for GGUGCGAAAUAAGCCUACAUGAGGAUCACCCAUGUAUGUAGGCAGGAUAUCGUAUGCAAAGCAUACGAGAAGGGCUGUCGCACC [Mat - Same State NG 3 - JL Mod - D48] (Eterna round: R96, puzzle: Same State NG 3) please. class 1

Hi, small favor: classify GUGAAGAAUUAAGGAUAUCGAGUCAAGAUGUUAAACAUGAGGAUCACCCAUGUGGGUUGCGGUAUCGAGAAGGUAAAUUACAGG [salish99_SSNG2_r04_502] (Eterna round: R96, puzzle: Same State NG 2) by its apparent KD of MS2 coat protein when you get a moment. class 0

Categorize the following entry: ACAUGAGAUCUAGGAUAUAUAGUACCUACAUGUGACAUGAGGAUCACCCAUGUGGUAAGUAUGACAUAGAAGGAGAAGAUAUGU [Equivalance 96 - Jieux - Same State NG 2] (Eterna round: R96, puzzle: Same State NG 2) class 1

# bin label for AGCUAUCGAAAACGAUAGCAAAGGCAUGUACAUGAGGAUCACCCAUGUCAUGUACAAGCUUUUUGCUCGUCUUAAAA [Zipper 23 - 3] (Eterna round: R96, puzzle: Sensor for hsa-mir-208a) class 2

Class (by measured apparent KD of MS2 coat protein) for UGUUCGUAGGAAGGAUAUCGAAAUAAAGGCGUCCACAUGAGGAUCACCCAUGUCGGCGGACCAAACGAGAAGGUCUACCCGGAC [Eternabot solution 12] (Eterna round: R96, puzzle: Same State NG 2) class 0

Textbook exercise: identify the category of the sequence given here, GUCGGCCUGUCGUGCUGAGGUGAUAGUUAACAUGAGGAUCACCCAUGUUGCUGUCGGGUCGUUGGGAGUUUUCUUCG [Modxample 117 - Jieux - Sensor for bsa-mir-208a] (Eterna round: R96, puzzle: Sensor for hsa-mir-208a) , according to its measured value. class 2

* * *

# System: K4 kissing-loop RNA reporter;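 further: bound reporter read as fluorescence of individual clusters on recovered sequencing chips by microscopy, with normalized cluster intensities fitted with a binding model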
# test protocol: apparent KD of K4 kissing-loop reporter; higher = weaker reporter binding
# experimental conditions: Eterna round: R107; input ligand: theophylline 20 uM
outcome measure: apparent KD of K4 kissing-loop reporter (nM)
Give the number; nM is assumed, so skip it.

Given AAACAUUGGUCGGAUACCAGUUAGACCGAUAAGGUCAAAACUGGAGUGAUGUUCCCAAAUAACCCUUGGCAGCCGACCGAUGAAA [MAT - Same State Theophlline B - Mod of Eli - D11] , respond with its apparent KD of K4 kissing-loop reporter. 205

Quick one: give measured apparent KD of K4 kissing-loop reporter for UACCUAUUAUUAACACUAUAUACAACUGAAGGAGCGACAAUAAAGUCAGGUAGGUCGCAGAAUUAAUGAGUGAUGUUCAUUUUUA [JR_ExcArginiA_Sub014] 110

Return apparent KD of K4 kissing-loop reporter (reported value) for this sequence: CGCCGUAAGGCGGUCGCUCCCACUCCGGAAGGAGCGCCCGCAAGGGCAGGUAGGUCGCCGGAGUGAUGUUCCGGUGGAGGGACCG [#2 Exclusion - Arginine A Attempt #7 (Inspired by Omei)] 216

Please list apparent KD of K4 kissing-loop reporter recorded for the sequence UAAGUCUUAUCGGCCGCCACUCAUUACACGAAGUGAUGUUUCGGGUUUUAGACAAAUAAUUUUUGGAGGACCGGGAUACGAGAAA [theeternabot_sameState_KL_Trp_B_49] 148

Tell me apparent KD of K4 kissing-loop reporter reported for CACCAUGAAUUCUCUAGGAGUGAUGUUUUUCGAGGACCGGUACGGCCGCCACUCGGACGAGGAACGUGGGAGCGGCGAAAAGACU [xzzmullin] 83.9

* * *

So I've got a bunch of sequences here, and I need their apparent KD of MS2 coat protein values.
# Tested on: MS2 coat protein
# test protocol: apparent KD of MS2 coat protein; designed switch direction (-1 OFF switch, 1 ON switch): -1; higher = weaker reporter binding
# experimental conditions: input ligand: FMN 200 uM
I only need the number, in nM, no unit after it.

Provide one value: measured apparent KD of MS2 coat protein of AAGAAGGCAGGAUAUACAAAAUAAAAGAAAAGAAAGAAAGAACAUGAGGAUCACCCAUGUAGAAGGGUCAAGAA [Sankhenre Sewadjtu] (Eterna round: R96, puzzle: Exclusion 2) 52.2

Return apparent KD of MS2 coat protein for the following sequence: UCGUGAUUAGAGGAUAUAUUAAGAGUCAGAACAAUAGAAGGCUAAACAUGAGGAUCACCCAUGUAAAUGUGAAA [JR_Ex6_Sub060] (Eterna round: R97, puzzle: Exclusion 6) 172

Return apparent KD of MS2 coat protein (reported value) for this sequence: GAAAAUGUGGAGGAUAUCGACUUCGAAAGAAGUCGAGAAGGCCACACAUGAGGAUCACCCAUGUGUGCCUUAAA [Omei Ex6 H3] (Eterna round: R97, puzzle: Exclusion 6) 23.9

Quote apparent KD of MS2 coat protein reported for AAAACAAACGAAGGAUAUGCAACCCGGCGGUACGCAGAAGGUCGAAAGAUUUUCAUUCUACAUGAGGAUCACCCAUGUACGGGC [Leange] (Eterna round: R96, puzzle: Exclusion NG 1) please. 48.5

Return reported apparent KD of MS2 coat protein. Input sequence: CGGCAUGUACAAGGAUAUCAGCACGAUUAGUGCUGAGAAGGUGUAACAUGAGGAUCACCCAUGUAGAUCAUUAACCGAUUAAUU [ENG1/9-A2] (Eterna round: R96, puzzle: Exclusion NG 1) 145

* * *

# Test system: MS2 coat protein
# test protocol: apparent KD of MS2 coat protein, switch OFF state (with FMN for OFF switches, without FMN for ON switches); designed switch direction (-1 OFF switch, 1 ON switch): -1; higher = weaker reporter binding
# experimental conditions: FMN input: 0 or 200 uM; Eterna round: R93 (includes R88 designs)
Assign apparent KD of MS2 coat protein to each entry below.
Just the number please, in nM, no unit attached.

Please report apparent KD of MS2 coat protein for the following sequence: GAAGAACAUGAGGAUCACCCAUGUCAGGAUAUACAGAAGGGAAUAAUAUAACCUGGAAGUAGAAGGGACAAGAA [Ex 1 May 44] 65.4

Report apparent KD of MS2 coat protein for AAAAAACAUGAGGAUCACCCAUGUAAGGAUAUGUGAAAAAAAAAAUAAAAAAAAAAAAACAGAAGGUACAAAAA [LROPPY Exclusion 1 - v02_deltaG=3.34] 47.7

Find the measured apparent KD of MS2 coat protein of CUCUAGUUAGGAUAUCCAAGAAAAGAAAAGAAAGAAAAGAAGGAGAAGGAACAUGAGGAUCACCCAUGUAAGAA [EteRNA is fun!] and report it. 29.4

Numbers sourced from the supplement of paper PMC9170038.
